The reported measurements were obtained from paper PMC10247784.

target: human TAS2R1 (Homo sapiens, UniProt Q9NYW7); construct: expressed in transfected cells; host or cells: HEK293T-Gα16gust44; test: Calcium imaging assay (FLIPR), HEK293T-Gα16gust44 cells transfected with human TAS2R1; format: cell-based; details: calcium trace, sheet TAS2R1; Time 311.562 s
EXPERIMENTAL READOUT: RLU

Ask: Please indicate recorded RLU of C[C@H](CCC(=O)O)[C@H]1CC[C@H]2[C@@H]3[C@@H](O)C[C@@H]4C[C@H](O)CC[C@]4(C)[C@H]3CC[C@]12C [Ursodeoxycholic Acid, ursodeoxycholic acid] measured with human TAS2R1 (Homo sapiens, UniProt Q9NYW7).
Reply: -35.6948 RLU

Ask: Please indicate recorded RLU of C[C@H](CCC(=O)O)[C@H]1CC[C@H]2[C@@H]3[C@H](O)C[C@@H]4C[C@H](O)CC[C@]4(C)[C@H]3CC[C@]12C [Chenodeoxycholic Acid, chenodeoxycholic acid] measured with human TAS2R1 (Homo sapiens, UniProt Q9NYW7).
Reply: 138.414 RLU

Ask: Please indicate recorded RLU of C[C@H](CCC(=O)O)[C@H]1CC[C@H]2[C@@H]3[C@H](O)C[C@@H]4C[C@H](O)CC[C@]4(C)[C@H]3C[C@H](O)[C@]12C [Cholic Acid, cholic acid] measured with human TAS2R1 (Homo sapiens, UniProt Q9NYW7).
Reply: -29.8879 RLU

Ask: Please indicate recorded RLU of C[C@H](CCC(=O)O)[C@H]1CC[C@H]2[C@@H]3CC[C@@H]4C[C@H](O)CC[C@]4(C)[C@H]3CC[C@]12C [Lithocholic Acid, lithocholic acid] measured with human TAS2R1 (Homo sapiens, UniProt Q9NYW7).
Reply: 251.175 RLU

====

target: human TAS2R4 (Homo sapiens); construct: expressed in transfected cells; host or cells: HEK293T-Gα16gust44; assay: Calcium imaging assay (FLIPR), HEK293T-Gα16gust44 cells transfected with human TAS2R4; assay type: cell-based; conditions: Time (s) 48.781 (TCA, TLCA: 48.782); note: test concentration or dose not given here
Sequence (Q9NYW5 whole entry): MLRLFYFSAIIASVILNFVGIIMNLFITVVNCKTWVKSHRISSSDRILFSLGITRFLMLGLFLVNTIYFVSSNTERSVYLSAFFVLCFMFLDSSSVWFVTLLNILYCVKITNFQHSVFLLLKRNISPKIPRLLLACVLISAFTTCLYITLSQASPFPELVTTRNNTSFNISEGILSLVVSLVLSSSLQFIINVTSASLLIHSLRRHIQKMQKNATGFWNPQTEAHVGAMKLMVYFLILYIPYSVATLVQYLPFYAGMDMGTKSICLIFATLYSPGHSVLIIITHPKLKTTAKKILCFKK
Could you please mark yes (1) for values of RLU, fluorescence trace below 500 RLU and no (0) for values at or above it?

Ask: Consider C[C@H](CCC(=O)O)[C@H]1CC[C@H]2[C@@H]3[C@H](O)C[C@@H]4C[C@H](O)CC[C@]4(C)[C@H]3C[C@H](O)[C@]12C . Does its RLU, fluorescence trace lie strictly below 500 RLU?
Reply: no (0)

Ask: Consider C[C@H](CCC(=O)NCC(=O)O)[C@H]1CC[C@H]2[C@@H]3[C@H](O)C[C@@H]4C[C@H](O)CC[C@]4(C)[C@H]3C[C@H](O)[C@]12C . Does its RLU, fluorescence trace lie strictly below 500 RLU?
Reply: no (0)

Ask: Consider C[C@H](CCC(=O)NCCS(=O)(=O)O)[C@H]1CC[C@H]2[C@@H]3CC[C@@H]4C[C@H](O)CC[C@]4(C)[C@H]3CC[C@]12C . Does its RLU, fluorescence trace lie strictly below 500 RLU?
Reply: yes (1)

Ask: Consider C[C@H](CCC(=O)O)[C@H]1CC[C@H]2[C@@H]3[C@@H](O)C[C@@H]4C[C@H](O)CC[C@]4(C)[C@H]3CC[C@]12C . Does its RLU, fluorescence trace lie strictly below 500 RLU?
Reply: yes (1)

Ask: Consider C[C@H](CCC(=O)O)[C@H]1CC[C@H]2[C@@H]3CC[C@@H]4C[C@H](O)CC[C@]4(C)[C@H]3C[C@H](O)[C@]12C . Does its RLU, fluorescence trace lie strictly below 500 RLU?
Reply: yes (1)

====

molecular target: human TAS2R4 (Homo sapiens); construct: expressed in transfected cells; host or cells: HEK293T-Gα16gust44; experiment: Calcium imaging assay (FLIPR), HEK293T-Gα16gust44 cells transfected with human TAS2R4; assay type: cell-based; conditions: Time (s) 227.547; note: test concentration or dose not given here
Record form. Attribute: RLU, fluorescence trace. Fill in for each entry.
Unit RLU implied. Number only.

Ask: Identify the reported RLU, fluorescence trace for the following entry. C[C@H](CCC(=O)O)[C@H]1CC[C@H]2[C@@H]3[C@@H](O)C[C@@H]4C[C@H](O)CC[C@]4(C)[C@H]3CC[C@]12C
Reply: 187.605

Ask: Identify the reported RLU, fluorescence trace for the following entry. C[C@H](CCC(=O)O)[C@H]1CC[C@H]2[C@@H]3[C@H](O)C[C@@H]4C[C@H](O)CC[C@]4(C)[C@H]3C[C@H](O)[C@]12C
Reply: 271.039

Ask: Identify the reported RLU, fluorescence trace for the following entry. C[C@H](CCC(=O)NCC(=O)O)[C@H]1CC[C@H]2[C@@H]3[C@H](O)C[C@@H]4C[C@H](O)CC[C@]4(C)[C@H]3C[C@H](O)[C@]12C
Reply: 160.915

====

biological target: mouse Tas2r108 (Mus musculus); construct: expressed in transfected cells; host or cells: HEK293T-Gα16gust44; experiment: Calcium imaging assay (FLIPR), HEK293T-Gα16gust44 cells transfected with mouse Tas2r108; type: cell-based; conditions: Time 353.562 s
Sequence (Q9JKT3 whole entry): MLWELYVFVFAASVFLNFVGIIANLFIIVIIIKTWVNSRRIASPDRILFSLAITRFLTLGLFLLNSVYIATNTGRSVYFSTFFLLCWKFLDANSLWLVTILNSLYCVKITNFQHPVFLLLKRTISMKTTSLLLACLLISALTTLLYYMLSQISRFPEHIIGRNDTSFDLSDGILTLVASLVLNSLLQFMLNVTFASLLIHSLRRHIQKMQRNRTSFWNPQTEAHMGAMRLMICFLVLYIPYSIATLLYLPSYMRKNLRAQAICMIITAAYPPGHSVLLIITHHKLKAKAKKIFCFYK
Record form. Attribute: RLU. Fill in for each entry.
Unit RLU implied. Number only.

Ask: Identify the reported RLU for the following entry. C[C@H](CCC(=O)O)[C@H]1CC[C@H]2[C@@H]3CC[C@@H]4C[C@H](O)CC[C@]4(C)[C@H]3C[C@H](O)[C@]12C
Reply: 427.233

Ask: Identify the reported RLU for the following entry. C[C@H](CCC(=O)NCCS(=O)(=O)O)[C@H]1CC[C@H]2[C@@H]3[C@H](O)C[C@@H]4C[C@H](O)CC[C@]4(C)[C@H]3C[C@H](O)[C@]12C
Reply: 264.083

Ask: Identify the reported RLU for the following entry. C[C@H](CCC(=O)NCC(=O)O)[C@H]1CC[C@H]2[C@@H]3[C@H](O)C[C@@H]4C[C@H](O)CC[C@]4(C)[C@H]3C[C@H](O)[C@]12C
Reply: 156.745

Ask: Identify the reported RLU for the following entry. C[C@H](CCC(=O)O)[C@H]1CC[C@H]2[C@@H]3[C@H](O)C[C@@H]4C[C@H](O)CC[C@]4(C)[C@H]3C[C@H](O)[C@]12C
Reply: 161.041

====

Record form. Attribute: RLU. Fill in for each entry.
Molecular target: human TAS2R1 (Homo sapiens)
Construct: expressed in transfected cells; host or cells: HEK293T-Gα16gust44
Sequence (Q9NYW7 1-299): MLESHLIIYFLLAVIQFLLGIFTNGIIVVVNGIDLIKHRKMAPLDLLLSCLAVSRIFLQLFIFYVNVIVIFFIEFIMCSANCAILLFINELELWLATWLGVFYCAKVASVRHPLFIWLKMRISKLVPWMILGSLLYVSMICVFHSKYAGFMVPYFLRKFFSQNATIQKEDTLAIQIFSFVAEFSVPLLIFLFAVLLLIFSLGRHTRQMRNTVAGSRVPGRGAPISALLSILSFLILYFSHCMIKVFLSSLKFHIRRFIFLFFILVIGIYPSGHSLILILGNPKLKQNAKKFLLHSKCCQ
Assay: Calcium imaging assay (FLIPR), HEK293T-Gα16gust44 cells transfected with human TAS2R1
Format: cell-based
Settings: Time 245.547 s
Unit RLU implied. Number only.

Ask: Identify the reported RLU for the following entry. C[C@H](CCC(=O)O)[C@H]1CC[C@H]2[C@@H]3CC[C@@H]4C[C@H](O)CC[C@]4(C)[C@H]3C[C@H](O)[C@]12C
Reply: 168.248

Ask: Identify the reported RLU for the following entry. C[C@H](CCC(=O)NCCS(=O)(=O)O)[C@H]1CC[C@H]2[C@@H]3[C@H](O)C[C@@H]4C[C@H](O)CC[C@]4(C)[C@H]3C[C@H](O)[C@]12C
Reply: 17.8718

Ask: Identify the reported RLU for the following entry. C[C@H](CCC(=O)NCCS(=O)(=O)O)[C@H]1CC[C@H]2[C@@H]3CC[C@@H]4C[C@H](O)CC[C@]4(C)[C@H]3CC[C@]12C
Reply: -72.3962

Ask: Identify the reported RLU for the following entry. C[C@H](CCC(=O)NCC(=O)O)[C@H]1CC[C@H]2[C@@H]3[C@H](O)C[C@@H]4C[C@H](O)CC[C@]4(C)[C@H]3C[C@H](O)[C@]12C
Reply: 57.4201

====

biological target: human TAS2R1 (Homo sapiens); construct: expressed in transfected cells; host or cells: HEK293T-Gα16gust44; test: Calcium imaging assay (FLIPR), HEK293T-Gα16gust44 cells transfected with human TAS2R1; type: cell-based; details: Time 18.781 s
EXPERIMENTAL READOUT: RLU (RLU)
Unit RLU implied. Number only.

Ask: Identify the reported RLU for the following entry. C[C@H](CCC(=O)NCCS(=O)(=O)O)[C@H]1CC[C@H]2[C@@H]3CC[C@@H]4C[C@H](O)CC[C@]4(C)[C@H]3CC[C@]12C
Reply: 5.165

Ask: Identify the reported RLU for the following entry. C[C@H](CCC(=O)NCCS(=O)(=O)O)[C@H]1CC[C@H]2[C@@H]3[C@H](O)C[C@@H]4C[C@H](O)CC[C@]4(C)[C@H]3C[C@H](O)[C@]12C
Reply: -8.288

Ask: Identify the reported RLU for the following entry. C[C@H](CCC(=O)O)[C@H]1CC[C@H]2[C@@H]3CC[C@@H]4C[C@H](O)CC[C@]4(C)[C@H]3C[C@H](O)[C@]12C
Reply: -64.4563

Ask: Identify the reported RLU for the following entry. C[C@H](CCC(=O)NCC(=O)O)[C@H]1CC[C@H]2[C@@H]3[C@H](O)C[C@@H]4C[C@H](O)CC[C@]4(C)[C@H]3C[C@H](O)[C@]12C
Reply: -8.381
